Tested on: OVCAR3 Cells
test: OVCAR3 Cell Viability Assay (CellTiter-Glo)
Assay type: cell-based
experimentalContext: Homo sapiens, OVCAR-3, 144 h, 6 days incubation, read-out: OVCAR3 CTG IC50
pIC50: −log10 of the molar value.
Reported pIC50 values are given for each entry in this list.

Would you please look over these solved cases?
Cc1cc(NC(=O)c2ccc(NS(=O)(=O)CCO)cc2N2CC3CCC(C2)O3)nc(N2CCC(F)(F)CC2)n1 [Compound 10] = 5.70 to 6.70
O=C1c2ccc(NS(=O)(=O)CCO)cc2C2(CCC3(CC3)CC2)CN1c1cncc(N2CCC(F)(F)CC2)n1 [Compound 54] = > 6.70
O=C1c2cc(F)c(NS(=O)(=O)CCO)cc2C2(CCC3(CC3)CC2)CN1c1ccnc(NC2CC(F)(F)C2)n1 [Compound 65] = 5.70 to 6.70
CC1(C)CCC2(CC1)CN(c1ccnc(NC3CC(F)(F)C3)n1)C(=O)c1ccc(NS(=O)(=O)CCO)cc12 [Compound 74] = > 6.70
O=C1c2cc(F)c(NS(=O)(=O)CCO)cc2C2(CCC3(CC3)CC2)CN1c1ccnc(N2CCC(F)(F)CC2)n1 [Compound 41] = 5.70 to 6.70
CC(C)[C@H](N)C(=O)OCCS(=O)(=O)Nc1ccc2c(c1)C1(CCC3(CC3)CC1)CN(c1ccc(C#N)c(N3CCC(F)(F)CC3)n1)C2=O [Compound 132] = > 6.70

// query Which measured pIC50 belongs to CN(c1nccc(N2CC3(CCC4(CC4)CC3)c3cc(NS(=O)(=O)CCO)ccc3C2=O)n1)C1CCC(F)(F)C1 (stereo not shown) [Compound 50] , tested on OVCAR3 Cells?
// result 5.70 to 6.70

---

test: Mouse PK Assay
Format: in vivo
experimentalContext: plasma; male BALB/c mouse, IV
readoutType: MRT (h)

O=C1c2ccc(NS(=O)(=O)CCO)cc2C2(CCC3(CC3)CC2)CN1c1ccnc(N2CCC(F)(F)CC2)n1 = 7.5
N#Cc1ccc(N2CC3(CCC4(CC4)CC3)c3cc(NS(=O)(=O)CCO)ccc3C2=O)nc1N1CCC(F)(F)CC1 = 6.2
N#Cc1ccc(N2CC3(CCC4(CCC4)CC3)c3cc(NS(=O)(=O)CCO)ccc3C2=O)nc1N1CCC(F)(F)CC1 = 6.9
N#Cc1ccc(N2CC3(CCC4(CC4)CC3)c3cc(NS(=O)(=O)CCO)c(F)cc3C2=O)nc1N1CCC(F)(F)CC1 = 8

---

test: Mouse PK Assay
Format: in vivo
experimentalContext: plasma; male BALB/c mouse, single oral dose 5 mg/kg; read-out: PO T1/2 (converted)
readoutType: half-life (h)

N#Cc1ccc(N2CC3(CCC4(CCC4)CC3)c3cc(NS(=O)(=O)CCO)ccc3C2=O)nc1N1CCC(F)(F)CC1 = 4.6
O=C1c2ccc(NS(=O)(=O)CCO)cc2C2(CCC3(CC3)CC2)CN1c1ccnc(N2CCC(F)(F)CC2)n1 = 4.8
N#Cc1ccc(N2CC3(CCC4(CC4)CC3)c3cc(NS(=O)(=O)CCO)c(F)cc3C2=O)nc1N1CCC(F)(F)CC1 = 6.3

---

System: OVCAR3 Cells
test: OVCAR3 Cell Viability Assay (CellTiter-Glo)
Type: cell-based
experimentalContext: Homo sapiens, OVCAR-3, 144 h, 6 days incubation, read-out: OVCAR3 CTG IC50
readoutType: IC50

N#Cc1ccc(N2CC3(CCC(F)(F)CC3)c3cc(NS(=O)(=O)CCO)ccc3C2=O)nc1NC1CC(F)(F)C1 [Compound 104] = < 200 nM
O=C1c2ccc(NS(=O)(=O)CCO)cc2C2(CCC(F)(F)CC2)CN1c1ccnc(N2CCC(F)(F)CC2)n1 [Compound 67] = 200 to 2000 nM
COCCS(=O)(=O)Nc1ccc2c(c1)C1(CCC3(CC3)CC1)CN(c1ccnc(NC3CC(F)(F)C3)n1)C2=O [Compound 148] = 200 to 2000 nM

From here, focus on the item given below.
// query IC50 for COc1ccc(N2CC3(CCC4(CC4)CC3)c3cc(NS(=O)(=O)CCN(C)C)ccc3C2=O)nc1N1CCC(F)(F)CC1 [Compound 153] ?
// result 200 to 2000 nM

---

System: OVCAR3 Cells
test: OVCAR3 Cell Viability Assay (CellTiter-Glo)
Format: cell-based
experimentalContext: Homo sapiens, OVCAR-3, 144 h, 6 days incubation, read-out: OVCAR3 CTG IC50
pIC50: −log10 of the molar value.
readoutType: pIC50

// query State the recorded pIC50 for this entry: CN(C)c1ccc(N2CC3(CCC4(CC4)CC3)c3cc(NS(=O)(=O)CCO)ccc3C2=O)nc1N1CCC(F)(F)CC1
// result > 6.70

// query Param item = O=C1c2ccc(NS(=O)(=O)CCO)cc2C2(CCC3(CC3)CC2)CN1c1cccc(CN2CC(F)(F)C2)n1 ; retrieve measured pIC50.
// result > 6.70

// query Could you tell me which pIC50 is on file for O=C1c2ccc(NS(=O)(=O)CCO)cc2C2(CCC(F)(F)CC2)CN1c1ccnc(NC2CC(F)(F)C2)n1 ?
// result 5.70 to 6.70

// query Please look up its pIC50: O=C1c2ccc(NS(=O)(=O)CCO)cc2C2(CCC3(CC3)CC2)CN1c1ccc2ncn(CC(F)(F)F)c2n1
// result 5.70 to 6.70

// query Dear colleague, I am looking for the recorded pIC50 of the following compound: COc1ccc(N2CC3(CCC4(CC4)CC3)c3cc(NS(=O)(=O)CCO)ccc3C2=O)nc1N1CCC(F)(F)CC1
// result > 6.70

// query Entry CN(c1nc(N2CC3(CCC4(CC4)CC3)c3cc(NS(=O)(=O)CCO)ccc3C2=O)ccc1C#N)C1CC(F)(F)C1 has what pIC50?
// result > 6.70

// query Fill in the blank: the reported pIC50 of O=C1c2ccc(NS(=O)(=O)CCO)cc2C2(CCC3(CC3)CC2)CN1c1ccc2c(n1)N1CCC(F)(F)CC1CO2 (centres unmarked) is ____.
// result 5.70 to 6.70

// query Can you look up the measured pIC50 of CC(C)(C)NS(=O)(=O)c1cc(N2CC3(CCC4(CC4)CC3)c3cc(NS(=O)(=O)CCO)ccc3C2=O)ccc1C#N for me?
// result > 6.70

---

System: OVCAR3 Cells
test: OVCAR3 Cell Viability Assay (CellTiter-Glo)
Assay type: cell-based
experimentalContext: Homo sapiens, OVCAR-3, 144 h, 6 days incubation, read-out: OVCAR3 CTG IC50
readoutType: IC50

Example entries and their recorded answers appear below.
CC1(F)CCC2(CC1)CN(c1ccc(C#N)c(N3CCC(F)(F)CC3)n1)C(=O)c1ccc(NS(=O)(=O)CCO)cc12 (stereo not drawn) = < 200 nM
COc1ccc(N2CC3(CCC4(CC4)CC3)c3cc(NS(=O)(=O)CCOC(=O)[C@@H](N)C(C)C)ccc3C2=O)nc1N1CCC(F)(F)CC1 = < 200 nM
O=C(Nc1ccc2c(c1)ncn2CC(F)(F)F)c1ccc(NS(=O)(=O)CCO)cc1N1CCC2(CC1)CC2 = > 2000 nM
CCNC(=O)c1ccc(N2CC3(CCC4(CC4)CC3)c3cc(NS(=O)(=O)CCO)ccc3C2=O)nc1N1CCC(F)(F)CC1 = < 200 nM
Cn1cnc(-c2ccc(N3CC4(CCC5(CC5)CC4)c4cc(NS(=O)(=O)CCO)ccc4C3=O)nc2NC2CC(F)(F)C2)c1 = < 200 nM

Continue with the next molecule.
// query Find the recorded IC50 belonging to O=C1c2ccc(NS(=O)(=O)CCO)cc2C2(CCC3(CC3)CC2)CN1c1ccnc(N2CCC(F)(F)CC2)n1 and report it.
// result < 200 nM

---

Below, each entry is listed alongside its reported IC50.
System: OVCAR3 Cells
test: OVCAR3 Cell Viability Assay (CellTiter-Glo)
Type: cell-based
experimentalContext: Homo sapiens, OVCAR-3, 144 h, 6 days incubation, read-out: OVCAR3 CTG IC50

// query For the molecule Cc1cc(N2CC3(CCC4(CC4)CC3)c3cc(NS(=O)(=O)CCO)ccc3C2=O)nc(N2CCC(F)(F)CC2)n1 , what IC50 is on record?
// result 200 to 2000 nM

// query Any idea what IC50 was measured for Cc1ncc(-c2ccc(N3CC4(CCC5(CC5)CC4)c4cc(NS(=O)(=O)CCO)ccc4C3=O)nc2N2CCC(F)(F)CC2)cn1 ?
// result < 200 nM

// query # input molecule: N#Cc1ccc(N2CC3(CCC4(CC4)CC3)c3cc(NS(=O)(=O)CCO)ccc3C2=O)nc1C(=O)N1CCCC1 ; wanted: its IC50
// result 200 to 2000 nM

---

# pIC50 values compiled below
Tested on: OVCAR3 Cells
test: OVCAR3 Cell Viability Assay (CellTiter-Glo)
Type: cell-based
experimentalContext: Homo sapiens, OVCAR-3, 144 h, 6 days incubation, read-out: OVCAR3 CTG IC50
pIC50: −log10 of the molar value.

CC1(C)CCC2(CC1)CN(c1ccc(C#N)c(N3CCC(F)(F)CC3)n1)C(=O)c1ccc(NS(=O)(=O)CCO)cc12 = > 6.70
N#Cc1ccc(N2CC3(CCC4(CC4)CC3)c3nc(NS(=O)(=O)CCO)ccc3C2=O)nc1N1CCC(F)(F)CC1 = 5.70 to 6.70

// query OVCAR3 Cells / pIC50 / O=C1c2ccc(NS(=O)(=O)CCO)cc2C2(CCC3(CCC3)CC2)CN1c1ccnc(NC2CC(F)(F)C2)n1 : value?
// result > 6.70

// query # get_value(readout= pIC50, system= OVCAR3 Cells) for CCS(=O)(=O)Nc1ccc2c(c1)C1(CCC3(CC3)CC1)CN(c1ccc(C#N)c(S(=O)(=O)NC(C)(C)C)c1)C2=O
// result > 6.70

// query Form field: pIC50 recorded for Cc1cc(NC(=O)c2ccc(NS(=O)(=O)CCO)cc2N2C[C@H]3CCC[C@H]3C2)nc(N2CCC(F)(F)CC2)n1 with OVCAR3 Cells (enter value)
// result > 6.70
